Ref: patent US20210054094A1

# tgt: human GPRC5D (human, UniProt Q9NZD1 1-345)
# Sequence (Q9NZD1 whole entry): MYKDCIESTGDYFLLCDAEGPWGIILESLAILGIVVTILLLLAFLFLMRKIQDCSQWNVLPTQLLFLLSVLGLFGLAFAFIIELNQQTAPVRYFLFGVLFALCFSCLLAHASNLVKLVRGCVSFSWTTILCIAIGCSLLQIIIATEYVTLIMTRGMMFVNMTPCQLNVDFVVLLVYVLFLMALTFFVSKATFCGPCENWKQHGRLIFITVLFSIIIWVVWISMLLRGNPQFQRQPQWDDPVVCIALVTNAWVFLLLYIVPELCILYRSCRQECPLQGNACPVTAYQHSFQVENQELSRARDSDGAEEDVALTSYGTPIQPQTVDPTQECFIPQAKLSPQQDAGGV
# assay details: cell-based or functional assay
experimental readout: CAR-J2 EC50 (PGLALA-CAR-J activation, L363 target cells)
Please make sure the unit comes right after the number.

INSERT INTO results (binder, result) VALUES
  ('P1AE5709 (antibody, V domains shown) VH: EVQLLESGGGLVQPGGSLRLSCAASGFTFSKYAMAWVRQAPGKGLEWVASISTGGVNTYYRDSVKARFTISRDNSKNTLYLQMNSLRAEDTAVYYCATHTGDYFDYWGQGTMVTVSS VL: EIVLTQSPGTLSLSPGERATLSCRASQSVSISGINLMNWYQQKPGQQPRLLIYHASILASGIPDRFSGSGSGTDFTLTISRLEPEDFAVYYCQQTRESPLTFGQGTRLEIK', '0.0594 µg/mL');

Input line: Reported CAR-J2 EC50 (PGLALA-CAR-J activation, L363 target cells), binder P1AE5728 (antibody, V domains shown) VH: ELQLLESGGGLVQPGGSLRLSCAASGFTFSKYAMAWVRQAPGKGLEWVASISTGGVNTYYADSVKGRFTISRDNAKNTLYLQMNSLRAEDTAVYYCATHTGDYFDYWGQGTMVTVSS VL: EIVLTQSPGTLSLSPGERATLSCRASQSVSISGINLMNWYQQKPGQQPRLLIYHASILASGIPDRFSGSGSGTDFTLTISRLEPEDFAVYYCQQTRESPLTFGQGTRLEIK : ____
Output line: 0.0056 µg/mL
